The measured values listed here are drawn from patent US20070128217A1.

Reported Binding of serum London to linear peptide (PEPSCAN-ELISA) values for the following sequences.
- Tested on: antibodies in sera from SARS patients (sera 1a, 1b, 2, 6, 37, 62, London, SARS-yellow, SARS-green)
- Format: binding, human
test_readout: Binding of serum London to linear peptide (PEPSCAN-ELISA)

{"columns": ["sequence", "recorded_value"],
 "data": [
  ["FYAEGSRGGSQASSR", 0.5],
  ["TKQYNVTQAFGRRGP", 0.5],
  ["RLNQLESKVSGKGQQ", 0.6],
  ["ATKQYNVTQAFGRRG", 0.5],
  ["ASKKPRQKRTATKQY", 0.5],
  ["SSRSRGNSRNSTPGS", 0.4],
  ["QASSRSSSRSRGNSR", 0.5],
  ["PKGFYAEGSRGGSQA", 0.5],
  ["GQQQQGQTVTKKSAA", 0.5],
  ["KGFYAEGSRGGSQAS", 0.4],
  ["GSQASSRSSSRSRGN", 0.6],
  ["AEASKKPRQKRTATK", 0.4],
  ["GFYAEGSRGGSQASS", 0.4],
  ["RNSTPGSSRGNSPAR", 0.4],
  ["GGETALALLLLDRLN", 0.4],
  ["SKKPRQKRTATKQYN", 0.5],
  ["SRNSTPGSSRGNSPA", 0.6]
]}

---

- Test system: antibodies in sera from SARS patients (sera 1a, 1b, 2, 6, 37, 62, London, SARS-yellow, SARS-green)
- Type: binding, human
test_readout: Binding of serum 2 to linear peptides of protein X1 of SARS-CoV Urbani

{"columns": ["sequence", "recorded_value"],
 "data": [
  ["VVTEGDGISTPKLKE", 0.3],
  ["VHGYFTEVYYQLEST", 0.4],
  ["AVFQSATKIIALNKR", 0.6],
  ["VAAGMEAQFLYLYAL", 0.5],
  ["NLLLLFVTIYSHLLL", 0.5],
  ["PFGWLVIGVAFLAVF", 0.5],
  ["HTIDGSSGVANPAMD", 0.5],
  ["NSVTDTIVVTEGDGI", 0.4],
  ["KNPLLYDANYFVCWH", 0.5],
  ["LVIGVAFLAVFQSAT", 0.6],
  ["FVTIYSHLLLVAAGM", 0.6],
  ["FLAVFQSATKIIALN", 0.5],
  ["HATATIPLQASLPFG", 0.6],
  ["CINACRIIMRCWLCW", 0.5],
  ["LPFGWLVIGVAFLAV", 0.7],
  ["VTIYSHLLLVAAGME", 0.5],
  ["LFVTIYSHLLLVAAG", 0.6],
  ["FQSATKIIALNKRWQ", 0.6],
  ["PYNSVTDTIVVTEGD", 0.4],
  ["CNLLLLFVTIYSHLL", 0.5],
  ["LVAAGMEAQFLYLYA", 0.6],
  ["ALYKGFQFICNLLLL", 0.4],
  ["TEVYYQLESTQITTD", 0.5],
  ["DTGIENATFFIFNKL", 0.5],
  ["GVAFLAVFQSATKII", 0.8],
  ["LESTQITTDTGIENA", 0.4],
  ["CKSKNPLLYDANYFV", 0.5],
  ["KIIALNKRWQLALYK", 0.7]
]}
